# credit: ChEMBL document CHEMBL1955839

System: Mus musculus
test_summary: Antihyperglycemic activity in ICR mouse assessed as blood glucose lowering ratio at 10 mg/kg, po administered 10 mins prior glucose challenge measured after 30 mins by oral glucose tolerance test
Format: functional
quantity_name: Activity (%)
Just the number please, in %, no unit attached.

Completed entries (count: 3):
INSERT INTO results (mol, reported) VALUES
  ('Cc1cc(NCC(C)C)nc(-c2ccc(Br)cc2)n1', 24),
  ('Cc1cc(NCCc2cccnc2)nc(-c2ccc(Br)cc2)n1', 17),
  ('Cc1cc(NCCc2ccc[n+]([O-])c2)nc(-c2ccc(Br)cc2)n1', 38);

Entry `COCCNc1cc(C)nc(-c2ccc(Br)cc2)n1` , system Mus musculus: what Activity was measured?
13

###

compounds and their reported EC
system_name: Glucose-dependent insulinotropic receptor (Homo sapiens)
Sequence (whole entry): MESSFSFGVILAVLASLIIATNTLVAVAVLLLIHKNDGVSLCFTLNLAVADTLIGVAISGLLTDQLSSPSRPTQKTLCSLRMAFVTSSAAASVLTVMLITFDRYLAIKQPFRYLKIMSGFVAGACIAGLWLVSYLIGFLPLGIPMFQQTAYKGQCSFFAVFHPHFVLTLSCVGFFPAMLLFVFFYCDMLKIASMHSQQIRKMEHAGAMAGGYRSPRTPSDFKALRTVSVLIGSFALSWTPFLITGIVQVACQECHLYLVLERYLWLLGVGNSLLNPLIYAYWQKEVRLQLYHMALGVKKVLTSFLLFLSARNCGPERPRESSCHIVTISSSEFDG
test_summary: Agonist activity at human GPR119 expressed in HEK293 cells co-transfected with pCRE-Luc assessed as induction in cAMP level after 6 hrs by luciferase reporter gene assay relative to 10 uM of 2-{[2-(4-Bromophenyl)-6-methylpyrimidin-4-yl]amino}ethanol
Type: functional, cell-based
Return type: number; implicit unit µM.

INSERT INTO results (compound, reported) VALUES
  ('Cc1cc(NCc2cccnc2)nc(-c2ccc(Br)cc2)n1', 1.3);

Requested field: EC. Item: `Cc1cc(NCCc2cccnc2)nc(-c2ccc(Br)cc2)n1`
0.73

Which value of EC has been reported for `Cc1cc(NCCO)nc(-c2ccc(Cl)cc2)n1` in the records?
12

Which EC value belongs to `Cc1cc(NCC(C)C)nc(-c2ccc(Br)cc2)n1` ?
0.91

###

test_summary: Total clearance in rat at 1 mg/kg, iv
Type: ADME, organism-based
Parameters: dose 1 mg/kg, route intravenous
recorded_conditions: in vivo
quantity_name: clearance (mL/min/kg)
Please state the figure in mL/min/kg; there is no need to write the unit.

Value lookup for clearance; key = `Cc1cc(NCCc2ccc[n+]([O-])c2)nc(-c2ccc(Br)cc2)n1`
20.1

###

test_summary: Volume of distribution at steady state in rat at 1 mg/kg, iv
Format: ADME, organism-based
Parameters: dose 1 mg/kg, route intravenous
recorded_conditions: in vivo, read-out: Vdss
quantity_name: Vd
Enter the number, and then the unit.

Bench note: what Vd did `Cc1cc(NCCc2ccc[n+]([O-])c2)nc(-c2ccc(Br)cc2)n1` show?
2 L/kg

###

system_name: Glucose-dependent insulinotropic receptor (Homo sapiens) (UniProt Q8TDV5)
test_summary: Agonist activity at human GPR119 expressed in HEK293 cells co-transfected with pCRE-Luc assessed as induction in cAMP level at 10 uM after 6 hrs by luciferase reporter gene assay relative to 10 uM of 2-{[2-(4-Bromophenyl)-6-methylpyrimidin-4-yl]amino}ethanol
Assay type: functional, cell-based
quantity_name: Intrinsic activity (%)
A number alone suffices; assume %.

The cases that follow already have their Intrinsic activity on record.
INSERT INTO measurements (compound, reported) VALUES
  ('Cc1cc(NCCO)nc(-c2ccc(I)cc2)n1', 66),
  ('Cc1cc(NCC(C)C)nc(-c2ccc(Br)cc2)n1', 322),
  ('Cc1cc(NCc2cccnc2)nc(-c2ccc(Br)cc2)n1', 294),
  ('OCCNc1cc(C(F)F)nc(-c2ccc(Br)cc2)n1', 195),
  ('Cc1cc(NCCO)nc(-c2ccc(Cl)cc2)n1', 48);

Value lookup for Intrinsic activity; key = `COCCNc1cc(C)nc(-c2ccc(Br)cc2)n1`
209

Given the compound `Cc1cc(NCCc2cccnc2)nc(-c2ccc(Br)cc2)n1` , what is its reported Intrinsic activity?
772

What value of Intrinsic activity has been recorded for this entry: Cc1cc(NC(C)CO)nc(-c2ccc(Br)cc2)n1 (stereo not given)
82

What value of Intrinsic activity has been recorded for this entry: `CCc1cc(NCCO)nc(-c2ccc(Br)cc2)n1`
146

Name the recorded Intrinsic activity for Cc1cc(NCC(C)O)nc(-c2ccc(Br)cc2)n1 (stereo not given) .
209
